- assay_target: D(3) dopamine receptor (Homo sapiens) (UniProt P35462)
- Sequence (P35462 whole entry, looked up): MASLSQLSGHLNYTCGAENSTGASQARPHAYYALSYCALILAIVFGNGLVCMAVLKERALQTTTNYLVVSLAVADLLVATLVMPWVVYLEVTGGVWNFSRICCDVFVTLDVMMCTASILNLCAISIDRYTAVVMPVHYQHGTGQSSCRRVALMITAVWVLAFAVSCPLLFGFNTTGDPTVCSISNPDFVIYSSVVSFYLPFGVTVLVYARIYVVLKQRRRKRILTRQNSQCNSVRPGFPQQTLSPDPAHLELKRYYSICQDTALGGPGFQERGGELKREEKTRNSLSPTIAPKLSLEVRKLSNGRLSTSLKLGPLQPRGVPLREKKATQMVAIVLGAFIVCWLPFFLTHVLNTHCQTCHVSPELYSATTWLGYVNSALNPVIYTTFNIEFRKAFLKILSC
- assay_comment: qHTS of D3 Dopamine Receptor Agonist: qHTS; also: 0% is about no effect
- run_conditions: D3R DiscoveRx beta-arrestin cells, luminescence, 90 min
Screen size: about 410,000 compounds; about 2,400 (0.59%) were called active. Rule as the data show it: active = max activation above about 30%; inactive = the rest. The list comes from a sample in which actives are over-represented; it also holds close analogues and randomly drawn compounds.
Form entry, call: pick from class 1 for active, class 0 for inactive

Assay result, entry CCOC(=O)c1cc(-c2ccccc2C)n(Cc2cc(C)no2)n1 — outcome?
class 1

What classification did CCC1CN(S(=O)(=O)c2cc(-c3cc(C)no3)ccc2C)c2cc(C)ccc2O1 (stereo not given) end up with in this test?
class 0

For O=C(Nc1ccon1)c1nc[nH]c1C(=O)NCc1ccccc1 , which call appears in the assay record?
class 0

# fetch the recorded call for CC1(C)S[C@@H]2[C@H](NC(=O)COc3ccccc3)C(=O)N2C1C(=O)OCc1ccccc1 (stereo not given in full) here
class 0

Status in this test for CC(=O)Nc1cccc(NC(=O)CSc2cn(CC(=O)N3CCCC3)c3ccccc23)c1 ?
class 0
